# SYSTEM_TESTED: Wnt-responsive promoter (TCF/LEF)
# EXPERIMENT_NOTES: Wnt-dependent luciferase reporter assay
pEC50: −log10 of the molar value. Where a SMILES comes first, the peptide text is derived from it.
MEASURED_PARAMETER: pEC50

Sure, the documented pEC50 for CC[C@H](C)[C@H](NC(=O)[C@H](CC(C)C)NC(=O)[C@H](Cc1ccccc1)NC(=O)[C@H](Cc1c[nH]c2ccccc12)NC(=O)[C@@H](N)CCSC)C(=O)N[C@@H](CO)C(=O)N[C@@H](Cc1ccccc1)C(=O)N[C@@H](Cc1c[nH]c2ccccc12)C(=O)NCC(N)=O [compound 108] (H-MWFLISFWG-NH2) is 4.82 to 5.12

# pEC50 (compound: CC[C@H](C)[C@@H]1NC(=O)[C@H](CC(C)C)NC(=O)[C@H](Cc2ccccc2)NC(=O)[C@H](Cc2c[nH]c3ccccc23)NC(=O)[C@H](CCSC)NC(=O)CCCNC(=O)C[C@@H](C(=O)O)NC(=O)[C@H](Cc2c[nH]c3ccccc23)NC(=O)[C@H](Cc2ccccc2)NC(=O)[C@H](CS)NC1=O [compound 147] (HELM PEPTIDE1{[O=C(CCCN[*:1])[*:2]].M.W.F.L.I.C.F.W.D}$PEPTIDE1,PEPTIDE1,1:R1-10:R3$$$V2.0) ) is < 4.52

For record CC[C@H](C)[C@H](NC(=O)[C@H](CC(C)C)NC(=O)[C@H](Cc1ccccc1)NC(=O)[C@H](Cc1c[nH]c2ccccc12)NC(=O)[C@H](CCSC)NC(=O)[C@H](CCCNC(=N)N)NC(=O)[C@H](CCC(N)=O)NC(=O)[C@@H](N)CCSC)C(=O)N[C@@H](CO)C(=O)N[C@@H](Cc1ccccc1)C(=O)N[C@@H](Cc1c[nH]c2ccccc12)C(N)=O [compound 74] (H-MQRMWFLISFW-NH2) the listed pEC50 is < 4.52

----------
# RECORDED_CONDITIONS: % Viability non-Wnt responsive cells
Where a SMILES comes first, the peptide text is derived from it.
Field: viability. Provide a value for each of the compounds that follow.
Only the number, expressed in %, is required.

The reported value for CC[C@H](C)[C@@H]1NC(=O)[C@H](CC(C)C)NC(=O)[C@H]([C@@H](C)CC)NC(=O)[C@H](Cc2c[nH]c3ccccc23)NC(=O)[C@@H](N)CCCCNC(=O)CC[C@@H](C(=O)O)NC(=O)[C@H](Cc2c[nH]c3ccccc23)NC(=O)[C@H](C)NC(=O)[C@H](CO)NC1=O [compound 184] (HELM PEPTIDE1{K.W.I.L.I.S.A.W.E}$PEPTIDE1,PEPTIDE1,1:R3-9:R3$$$V2.0) in terms of viability is 95.2

// viability lookup, compound = CC[C@H](C)[C@H](NC(=O)[C@H](CC(C)C)NC(=O)[C@H](Cc1ccccc1)NC(=O)[C@H](Cc1c[nH]c2ccccc12)NC(=O)[C@H](Cc1c[nH]cn1)NC(=O)[C@H](CCCNC(=N)N)NC(=O)[C@H](CO)NC(=O)[C@@H](N)CCCCN)C(=O)N[C@@H](CO)C(=O)N[C@@H](Cc1ccccc1)C(=O)N[C@@H](Cc1c[nH]c2ccccc12)C(N)=O [compound 94] (H-KSRHWFLISFW-NH2) , result: 118

Kindly note the recorded viability for CC[C@H](C)[C@H](NC(=O)[C@H](CC(C)C)NC(=O)[C@H](Cc1ccccc1)NC(=O)[C@H](Cc1c[nH]c2ccccc12)N(C)C(=O)[C@H](CCSC)NC(=O)[C@H](CCCNC(=N)N)NC(=O)[C@@H](NC(=O)[C@@H](N)CCSC)[C@@H](C)CC)C(=O)N[C@@H](CO)C(=O)N[C@@H](Cc1ccccc1)C(=O)N[C@@H](Cc1c[nH]c2ccccc12)C(=O)NCC(=O)O [compound 53] (HELM PEPTIDE1{M.I.R.M.[meW].F.L.I.S.F.W.G}$$$$V2.0) , which is 103

Lab book: viability of CC[C@H](C)[C@H](NC(=O)[C@H](CC(C)C)NC(=O)[C@H](Cc1ccccc1)NC(=O)[C@H](Cc1c[nH]c2ccccc12)NC(=O)[C@@H](N)CCSC)C(=O)N[C@@H](CSC)C(=O)N[C@@H](Cc1ccccc1)C(=O)N[C@@H](Cc1c[nH]c2ccccc12)C(=O)NCC(=O)O [compound 214] (H-MWFLIC(Me)FWG-OH) noted as 102

compound CC[C@H](C)[C@H](NC(=O)[C@H](CC(C)C)NC(=O)[C@@H](NC(=O)[C@H](Cc1c[nH]c2ccccc12)NC(=O)[C@@H](N)CCSC)[C@@H](C)CC)C(=O)N[C@@H](CO)C(=O)N[C@@H](Cc1ccccc1)C(=O)N[C@@H](Cc1c[nH]c2ccccc12)C(=O)NCC(=O)O [compound 155] (H-MWILISFWG-OH) , viability observed: 97

The reported viability of the compound CC[C@H](C)[C@H](NC(=O)[C@H](Cc1c[nH]c2ccccc12)NC(=O)[C@@H](N)CCSC)C(=O)N[C@@H](CC(C)C)C(=O)N[C@H](C(=O)N[C@@H](CO)C(=O)NC(C)(Cc1ccccc1)C(=O)N[C@@H](Cc1c[nH]c2ccccc12)C(=O)NCC(=O)O)[C@@H](C)CC (some centres unmarked) [compound 128] (HELM PEPTIDE1{M.W.I.L.I.S.[CC(Cc1ccccc1)(N[*:1])C(=O)[*:2]].W.G}$$$$V2.0) was 132

compound CCOC[C@H](NC(=O)[C@H](CO)NC(=O)[C@@H](NC(=O)[C@H](CC(C)C)NC(=O)[C@H](Cc1ccccc1)NC(=O)[C@@H](N)Cc1c[nH]c2ccccc12)[C@@H](C)CC)C(=O)N[C@@H](Cc1c[nH]c2ccccc12)C(=O)O [compound 104] (H-WFLISS(Et)W-OH) , viability observed: 104

Looking up CC[C@H](C)[C@H](NC(=O)[C@H](CC(C)C)NC(=O)[C@H](Cc1ccccc1)NC(=O)[C@H](Cc1c[nH]c2ccccc12)NC(=O)[C@H](CCSC)NC(C)=O)C(=O)N[C@@H](CO)C(=O)N[C@@H](Cc1ccccc1)C(=O)N[C@@H](Cc1c[nH]c2ccccc12)C(=O)NCC(=O)O [compound 219] (Ac-MWFLISFWG-OH) , I found its viability recorded as 90.6

For record CC[C@H](C)[C@@H]1NC(=O)[C@H](CC(C)C)NC(=O)[C@H](Cc2ccccc2)NC(=O)[C@H](Cc2c[nH]c3ccccc23)NC(=O)[C@H](CCSC)NC(=O)[C@@H](N)CC(=O)NCCCC[C@@H](C(=O)NCC(=O)O)NC(=O)[C@H](Cc2c[nH]c3ccccc23)NC(=O)[C@H](Cc2ccccc2)NC(=O)[C@H](CS)NC1=O [compound 177] (HELM PEPTIDE1{D.M.W.F.L.I.C.F.W.K.G}$PEPTIDE1,PEPTIDE1,1:R3-10:R3$$$V2.0) the listed viability is 98.6

viability reading for CC[C@H](C)[C@H](NC(=O)[C@H](CC(C)C)NC(=O)[C@@H](NC(=O)[C@H](Cc1c[nH]c2ccccc12)NC(=O)[C@@H](N)CCCCN)[C@@H](C)CC)C(=O)N[C@@H](CS)C(=O)N[C@@H](Cc1ccccc1)C(=O)N[C@@H](Cc1c[nH]c2ccccc12)C(=O)NCC(=O)O [compound 117] (H-KWILICFWG-OH) : 138

Recorded result, CC[C@H](C)[C@@H]1NC(=O)[C@H](CC(C)C)NC(=O)[C@H](Cc2ccc(O)cc2)NC(=O)[C@H](Cc2c[nH]c3ccccc23)NC(=O)[C@H](CCSC)NC(=O)[C@H](CCCNC(=N)N)NC(=O)[C@H](CO)NC(=O)[C@H](CCSC)NC(=O)[C@@H](N)CCCCNC(=O)[C@H](Cc2c[nH]c3ccccc23)NC(=O)[C@H](Cc2ccccc2)NC(=O)[C@H](CO)NC1=O [compound 31] (HELM PEPTIDE1{K.M.S.R.M.W.Y.L.I.S.F.W}$PEPTIDE1,PEPTIDE1,1:R3-12:R2$$$V2.0; bridges inferred) , viability: 89

----------
# RECORDED_CONDITIONS: % Viability non-Wnt responsive cells
Where a SMILES comes first, the peptide text is derived from it.
MEASURED_PARAMETER: viability (%)
A number alone suffices; assume %.

Measured viability, CC[C@H](C)[C@@H]1NC(=O)[C@H](CC(C)C)NC(=O)[C@H](Cc2ccccc2)NC(=O)[C@H](Cc2c[nH]c3ccccc23)NC(=O)[C@@H](NC(C)=O)CC(=O)NCCCC[C@@H](C(=O)NCC(=O)O)NC(=O)[C@H](Cc2c[nH]c3ccccc23)NC(=O)[C@H](Cc2ccccc2)NC(=O)[C@H](CS)NC1=O [compound 175] (HELM PEPTIDE1{[ac].D.W.F.L.I.C.F.W.K.G}$PEPTIDE1,PEPTIDE1,2:R3-10:R3$$$V2.0) : 100

// viability lookup, molecule = CC[C@H](C)[C@@H]1NC(=O)[C@H](CC(C)C)NC(=O)[C@H](C(C)(C)C)NC(=O)[C@H](Cc2c[nH]c3ccccc23)NC(=O)[C@@H](N)CCCCNC(=O)C[C@@H](C(=O)O)NC(=O)[C@H](Cc2c[nH]c3ccccc23)NC(=O)[C@H](C)NC(=O)[C@H](CO)NC1=O [compound 205] (HELM PEPTIDE1{K.W.[CC(C)(C)[C@H](N[*:1])C(=O)[*:2]].L.I.S.A.W.D}$PEPTIDE1,PEPTIDE1,1:R3-9:R3$$$V2.0) , result: 114

The molecule listed as CC[C@H](C)[C@@H]1NC(=O)[C@H](CC(C)C)NC(=O)[C@H](Cc2ccccc2)NC(=O)[C@H](Cc2c[nH]c3ccccc23)NC(=O)[C@@H](NC(C)=O)CCCCNC(=O)CC[C@@H](C(=O)O)NC(=O)[C@H](Cc2c[nH]c3ccccc23)NC(=O)[C@H](Cc2ccccc2)NC(=O)[C@H](C)NC1=O [compound 200] (HELM PEPTIDE1{[ac].K.W.F.L.I.A.F.W.E}$PEPTIDE1,PEPTIDE1,2:R3-10:R3$$$V2.0) shows viability equal to 81.4
